test: Pharmacokinetics in male Sprague Dawley rats, single subcutaneous administration; settings: rat, in vivo, sc, 10 nmol/kg
Starred links: 1 amine or outer side, 2 acyl side, 3 side chain; linkers in the order of their positions; H or OH if unused. Non-standard residues stand in square brackets, D forms with d. Groups on a side chain read outwards from the residue. No end group written: not given here. *: point of attachment. C20 diacid = O=C(O)CCCCCCCCCCCCCCCCCCC(=O)*; Phe(4-CN) = N#Cc1ccc(C[C@H](N)C(=O)O)cc1; αMePhe(2-F) = C[C@](N)(Cc1ccccc1F)C(=O)O; γGlu = O=C(O)[C@H](CCC(=O)[*:2])N[*:1]; εLys = N[C@@H](CCCCN[*:1])C(=O)[*:2]; αMeL = CC(C)C[C@](C)(N)C(=O)O; AEEA = NCCOCCOCC(=O)O; Aib = CC(C)(N)C(=O)O
Listed here: items and their measured CL/F.
Assay metric: CL/F (mL/min/kg)

# Substance, Output unit, Test value
measured = [
    ("Y[Aib]QGTFTSDFSK[αMeL]LDKK([AEEA-γGlu-C20 diacid])AQ[Aib]AFIEYLLAGGPSSGEPPPSGE-NH2 [Example 2]", "mL/min/kg", 0.143),
    ("H-Y[Aib]QGT[αMePhe(2-F)]TSD[Phe(4-CN)]SILLDKQAQK([AEEA-AEEA-γGlu-C20 diacid])AFIEYLLEGGPSSGEPPPSEG-NH2 [Example 321]", "mL/min/kg", 0.137),
    ("H-Y[Aib]QGTFTSDYSI[αMeL]LDKQAAK([εLys-εLys-γGlu-C20 diacid])QFVEWLLA[Aib]GPSSGEPPPSEG-NH2 [Example 329]", "mL/min/kg", 0.322),
    ("H-Y[Aib]QGTFTSDYSI[αMeL]LDKK([AEEA-γGlu-C20 diacid])AQRAFIEYLLEGGPSSGEPPPSEG-NH2 [Example 289]", "mL/min/kg", 0.0645),
]
